Attribution: ChEMBL document CHEMBL3352654

- System: NCI-H1792
- Assay Notes: Anticancer activity against human NCI-H1792 cells by HTS assay
- Type: functional, cell-based
Quantity Name: IC50 (µM)

Example compounds with recorded IC50:
>  <Smiles Record>
O=c1c(O)c(-c2ccc(O)c(O)c2)oc2cc(O)cc(O)c12

>  <IC50, µM>
3.85

$$$$
>  <Smiles Record>
COc1cc(O)c2c(=O)c(O)c(-c3ccc(OC)c(O)c3)oc2c1

>  <IC50, µM>
3.36

$$$$

[a] COc1ccc(-c2oc3cc(O)cc(O)c3c(=O)c2O)cc1O
[b] CCCCOc1ccc(-c2oc3cc(O)cc(O)c3c(=O)c2O)cc1O
[c] CCOc1ccc(-c2oc3cc(O)cc(O)c3c(=O)c2O)cc1O
[d] COc1c(-c2ccc(O)c(O)c2)oc2cc(O)cc(O)c2c1=O
[e] CCOc1cc(O)c2c(=O)c(OCC)c(-c3ccc(O)c(O)c3)oc2c1
Please list the entries, largest IC50 first. Please, when replying, give the labels in the order that was requested.
d, b, a, e, c

[a] CCCOc1cc(O)c2c(=O)c(O)c(-c3ccc(OCCC)c(O)c3)oc2c1
[b] CCCOc1ccc(-c2oc3cc(O)cc(O)c3c(=O)c2O)cc1O
[c] CCCCOc1cc(O)c2c(=O)c(OCCCC)c(-c3ccc(O)c(O)c3)oc2c1
List the 3 entries from lowest IC50 to highest IC50 value. Please, when replying, give the labels in the order that was requested.
a, c, b
(a: 3.63 µM, c: 6.03 µM, b: 13.3 µM)

[P] CCCCOc1cc(O)c2c(=O)c(O)c(-c3ccc(OCCCC)c(O)c3)oc2c1
[Q] CCCCOc1c(-c2ccc(O)c(O)c2)oc2cc(O)cc(O)c2c1=O
Identify the entry with the smaller IC50: P or Q . State your choice using its label.
P
